This collection of values is drawn from PubChem BioAssay.

# system-name: Short transient receptor potential channel 4 (Mus musculus) (UniProt Q9QUQ5)
# Sequence (Q9QUQ5 whole entry, looked up): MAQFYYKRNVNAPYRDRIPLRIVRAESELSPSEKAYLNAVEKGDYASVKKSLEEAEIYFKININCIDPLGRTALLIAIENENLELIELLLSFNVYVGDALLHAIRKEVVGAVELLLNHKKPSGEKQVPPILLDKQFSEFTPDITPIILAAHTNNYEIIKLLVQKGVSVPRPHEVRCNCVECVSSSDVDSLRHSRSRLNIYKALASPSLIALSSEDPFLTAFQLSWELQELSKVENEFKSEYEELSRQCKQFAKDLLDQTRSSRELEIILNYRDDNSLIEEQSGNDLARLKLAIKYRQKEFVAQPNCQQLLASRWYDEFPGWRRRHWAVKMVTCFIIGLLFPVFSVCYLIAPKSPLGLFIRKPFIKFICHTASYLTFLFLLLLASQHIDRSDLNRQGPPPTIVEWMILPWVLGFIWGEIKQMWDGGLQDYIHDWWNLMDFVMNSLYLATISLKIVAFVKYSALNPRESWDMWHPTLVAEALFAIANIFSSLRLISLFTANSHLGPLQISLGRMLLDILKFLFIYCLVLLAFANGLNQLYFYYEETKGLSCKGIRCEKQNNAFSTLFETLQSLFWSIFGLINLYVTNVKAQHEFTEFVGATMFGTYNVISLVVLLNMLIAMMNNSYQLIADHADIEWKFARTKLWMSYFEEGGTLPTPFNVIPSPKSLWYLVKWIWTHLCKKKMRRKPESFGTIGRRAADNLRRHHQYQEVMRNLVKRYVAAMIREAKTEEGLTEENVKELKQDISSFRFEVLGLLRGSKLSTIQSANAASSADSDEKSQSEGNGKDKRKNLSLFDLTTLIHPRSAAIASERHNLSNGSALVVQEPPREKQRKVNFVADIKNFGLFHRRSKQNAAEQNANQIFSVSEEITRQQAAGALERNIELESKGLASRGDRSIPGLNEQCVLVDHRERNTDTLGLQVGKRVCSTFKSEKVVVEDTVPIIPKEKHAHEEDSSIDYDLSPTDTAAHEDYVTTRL
# method: blockers of DAMGO-evoked TRPC4 calcium flux – cell-based, second round, Fluo4, HEK293 TRPC4beta/mu-opioid, 1 µM, confirmation (AID 2637)
# run-conditions: at 1 µM
Calls of active or inactive are those of the source.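 How the source made its calls: active means calcium signal ratio cut to more than 3 SD under the fully stimulated control mean yet still positive, in both repeats and the primary screen; inactive means the rest.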
Can you answer with just one of these options? 1 for active, 0 for inactive

// below: answered compounds
| compound | cat |
| --- | --- |
| c1ccc(Cn2c(CN3CCCC3)nc3ccccc32)cc1 | 1 |
| CCOC(=O)C1(CC2CC2)CCN(Cc2cnc(-c3ccccc3C)nc2)CC1 | 0 |
| O=S(=O)(NCCSc1nnc(-c2ccco2)n1-c1ccccc1)c1ccccc1 | 0 |

In: What outcome does the record of this test show for `CCOC(=O)c1cc(=O)n(Cc2ccccc2C)c2ccccc12` ?
Out: 0

In: Now consider `Cc1ccc2nc(N(CCCN(C)C)C(=O)c3ccc(S(=O)(=O)N4CCc5ccccc5C4)cc3)sc2c1` and answer again.
Out: 0

In: Similarly, `COc1ccc(/C=N/n2c(SC)nnc2-c2ccccc2)cc1C` ?
Out: 0

In: Subsequent entry: `CCc1ccc2nc3nc(C)cc(C)c3c(N)c2c1`
Out: 1

In: Now consider CC(C)CCOc1ccc(C(=O)NCC(c2ccco2)N(C)C)cc1 (configuration not stated) and answer again.
Out: 0

In: Now give it for COc1ccc(F)cc1C(=O)C1CCCN(Cc2cccn2-c2ccccn2)C1 (configuration not stated) too.
Out: 0

In: Same lookup for `Cc1cccc(Cc2c(C)nc3c(C(=O)NCc4ccco4)cnn3c2C)c1` , please.
Out: 0

----------
# system-name: Short transient receptor potential channel 4 (Mus musculus) (UniProt Q9QUQ5)
# method: blockers of DAMGO-evoked TRPC4 calcium flux – cell-based, second round, Fluo4, HEK293 TRPC4beta/mu-opioid, 1 µM, confirmation (AID 2637);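 on inhibition: percent of integrated ratio relative to wells lacking test compound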
# run-conditions: at 1 µM; active compounds read high
The source made the active and inactive calls.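 The calls were made as follows: active = calcium signal ratio cut to more than 3 SD under the fully stimulated control mean yet still positive, in both repeats and the primary screen; inactive = the rest.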

| compound | system-name | inhibition |
| --- | --- | --- |
| CSc1ccc(CN(C)C(C)C(=O)NCc2ccccc2)cc1 (stereo not drawn) | Short transient receptor potential channel 4 (Mus musculus) (UniProt Q9QUQ5) | inactive |
| Cc1ccc(-n2c(N)cc(=O)nc2SCC(=O)N2CCN(c3ccccc3)CC2)cc1 | Short transient receptor potential channel 4 (Mus musculus) (UniProt Q9QUQ5) | inactive |
| COc1cc(S(=O)(=O)N2CCC(N3CCCCC3)CC2)ccc1-n1cnnn1 | Short transient receptor potential channel 4 (Mus musculus) (UniProt Q9QUQ5) | inactive |

----------
# method: nonspecific calcium rise without TRPC4 – cell-based, HEK293 mu-opioid receptor line, counter-screen for TRPC4 activator project, confirmation (AID 449723);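 further: counter screen cells carry the mu-opioid receptor alone and lack TRPC4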
# run-conditions: HEK293 mu-opioid cells, Fluo-4 calcium fluorescence, at 10 µM
Calls of active or inactive are those of the source.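 The calls were made as follows: active = hit in primary screen, with calcium signal over 5 SD above buffer well mean in both duplicates; inactive = the rest.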
Select the matching outcome among active, inactive

| molecule | cat |
| --- | --- |
| O=C1NCN(c2ccccc2)C12CCN(CCCC(c1ccc(F)cc1)c1ccc(F)cc1)CC2 | inactive |
| CCOc1cc(N(CC)CC)ccc1/C=C(/C#N)c1nc2ccccc2[nH]1 | active |
| c1ccc(NC(=NCc2ccco2)c2ccccc2)cc1 | inactive |
| c1coc(CN=C2NC(=NCc3ccco3)c3ccccc32)c1 | inactive |
| CCOC(=O)c1c(C)n(C)c2ccc(OCC(O)CNCCc3ccccc3)cc12 (stereo not drawn) | inactive |

In: What is the recorded call for this molecule in the test? `CCCc1c(O)nc(SCCN(CC)CC)[nH]c1=O`
Out: inactive

In: And then `O=C(NC(=S)NNC(=O)c1cccs1)c1ccc(Br)o1` , what is it?
Out: active

In: Another molecule to look at: OC(COc1ccccc1)CN1C2=NCCCN2c2ccccc21 (stereo not drawn)
Out: inactive

In: Now try `O=C1CN=C(Nc2cccc(C(F)(F)F)c2)N1C1CCCC1` .
Out: inactive

In: Param item: `O=C(c1cccc(C(=O)N2CCN(c3ccccc3)CC2)c1)N1CCN(c2ccccc2)CC1`
Out: inactive

In: Same thing, different molecule: `CC(C)Sc1nc2sc3c(c2c2nnc(SCC(=O)NCc4ccco4)n12)CCCC3`
Out: inactive

In: What about O=[N+]([O-])c1ccc(O)c(C2=NNC(c3ccccc3F)C2)c1 (stereo not drawn) ?
Out: active

In: Same read-out for `Cc1ccc(OCC(=O)NNC(=S)NC(=O)c2ccc(Br)o2)c(C)c1` ?
Out: inactive
